Origin of the recorded values: paper PMC5540273

- Test system: NEK6
- measurementParameters: concentration: 1 μM, replicates: in singlicate; n = 1;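 further: KINOMEscan kinase panel screen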
%Inh less than 8% is condition met; %Inh greater than or equal to 8% is condition not met.

Solved cases below.
compound="Cl.NC(=O)c1cccc(Nc2nccc(Nc3ccc(Oc4c(Cl)cccc4Cl)c(Cl)c3)n2)c1 [GW659009]" studytarget=NEK6 group="condition not met"
compound="CCn1c(-c2nonc2N)nc2c(C#CC(C)(C)O)ncc(OCCCCN)c21.O=C(O)C(F)(F)F.O=C(O)C(F)(F)F [GSK507274]" studytarget=NEK6 group="condition met"

IN: Bench note: check whether Cl.c1ccc(-c2ccc3c(Nc4ccc5[nH]ncc5c4)ccnc3c2)nc1 [GW440137] shows %Inh below 8%
OUT: condition met

IN: Bench note: check whether O=C(Nc1n[nH]c2cc(-c3ccoc3)ccc12)C1CC1 [SB-738481] shows %Inh below 8%
OUT: condition not met

IN: Bench note: check whether CN(c1ccc(NC(=O)Nc2cc(C(F)(F)F)ccc2F)cc1)c1ccnc(Nc2ccc(S(N)(=O)=O)cc2)n1 [GW809893] shows %Inh below 8%
OUT: condition not met

IN: Bench note: check whether Cc1ccc(C)c(NC(=O)NC2CCN(c3ccnc(Nc4ccc(F)cc4)n3)C2)c1 (stereo not shown) [GSK1379720] shows %Inh below 8%
OUT: condition met

IN: Bench note: check whether Cc1occc1-c1ncc(OC[C@@H](N)Cc2c[nH]c3ccccc23)cc1-c1ccc2[nH]nc(C)c2c1.O=C(O)C(F)(F)F [GSK682037] shows %Inh below 8%
OUT: condition met

IN: Bench note: check whether COc1cc(Nc2nccc(N3CCC(NC(=O)c4cc5ccccc5s4)C3)n2)cc(OC)c1OC (stereo not shown) [GSK1379760] shows %Inh below 8%
OUT: condition not met

IN: Bench note: check whether O=C(NC1CCN(c2ccnc(Nc3ccc(F)cc3)n2)C1)c1cc2ccccc2s1 (stereo not shown) [GSK1379716] shows %Inh below 8%
OUT: condition met

---

%Inh by entry:
- Tested on: PRKR
- Construct: gene EIF2AK2
- measurementParameters: concentration: 1 μM, replicates: in singlicate; n = 1
Field format: number, assumed %, no unit text.

Reference set (3 entries):
compound=CC(=O)Nc1nc2cnc(Nc3cc(NC(=O)c4cccc(C5(C#N)CC5)c4Cl)ccc3C)nc2s1 measurementname=%Inh readoutnumber=0
compound=c1ccc(-c2cnc3nccnn23)cc1 measurementname=%Inh readoutnumber=0
compound=CSc1cccc2c(-c3ccncn3)c(-c3ccc(F)cc3)nn12 measurementname=%Inh readoutnumber=0

IN: Please report the measured %Inh for Cc1ccc(C)c(NC(=O)NC2CCN(c3ccnc(Nc4ccc(F)cc4)n3)C2)c1 (centres unmarked)
OUT: 0

IN: Please report the measured %Inh for Cl.c1ccc(-c2ccc3c(Nc4ccc5[nH]ccc5c4)ccnc3c2)nc1
OUT: 0

IN: Please report the measured %Inh for Cc1ccc(C(=O)Nc2ccc(Nc3ccnc4cc(-c5nccs5)ccc34)cc2O)cc1.Cl
OUT: 0

IN: Please report the measured %Inh for c1ccc(Oc2ccc(Nc3ccnc4cc(-c5ccc(CNCCN6CCOCC6)o5)ccc34)cc2)nc1
OUT: 0

---

- System: CSF1R
- measurementParameters: concentration: 1 μM, replicates: in singlicate; n = 1
measurementName: %Inh
Returns: string containing the number followed by the unit.

compound=COC(=O)Nc1nc2ccc(Oc3ccc(NC(=O)Nc4cc(C(F)(F)F)ccc4F)cc3)cc2n1C.Cl result=86%
compound=COc1cc(Nc2ncc3c(C)nc(-c4cc5ccccc5[nH]4)n3n2)cc(OC)c1OC result=0%
compound=C[C@@H]1CC[C@@H](C(=O)Nc2ccccc2)CN1c1cc(-c2ccc3c(N)n[nH]c3c2)nc(N)n1 result=0%

IN: Please report the measured %Inh for O=C(Nc1ccccc1F)NC1CCN(c2ccnc(Nc3ccc(F)cc3)n2)CC1
OUT: 5%

IN: Please report the measured %Inh for COc1cccc(-c2ccc3c(NC(=O)C4CC4)n[nH]c3n2)c1
OUT: 10%

IN: Please report the measured %Inh for Cl.Cl.NCC(C(=O)Nc1cc(Br)c(-c2ccnc3[nH]ccc23)s1)c1ccccc1 (centres unmarked)
OUT: 28%

IN: Please report the measured %Inh for COc1cc(Nc2nccc(N3CCC(NC(=O)Nc4cccc(C(C)=O)c4)C3)n2)cc(OC)c1OC (centres unmarked)
OUT: 31%

IN: Please report the measured %Inh for CC(=O)Nc1nc2cnc(Nc3cc(NC(=O)c4cccc(C5(C#N)CC5)c4Cl)ccc3C)nc2s1
OUT: 99.4%
